test.system: T1, His-tagged human PD-1 protein (human, UniProt Q15116 25-170, limits assumed)
T1 construct: SPR analyte; also called his-tagged antigen PD-1; not shown: His tag
T1 sequence (Q15116 25-170 limits assumed): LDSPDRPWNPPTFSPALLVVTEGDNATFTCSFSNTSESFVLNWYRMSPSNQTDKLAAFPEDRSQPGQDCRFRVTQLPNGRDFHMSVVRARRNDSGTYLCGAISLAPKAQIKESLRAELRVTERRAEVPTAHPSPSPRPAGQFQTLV
protocol.description: SPR; Fab-SASA captured on immobilised BSA, his-tagged PD-1 as analyte
Doc: threshold 0.09 nM (exclusive). Items with Kd beneath it return satisfied; others return not satisfied.

Example entries begin here.
>>> class_label("AS05617 (Fab) (Fab, V domains shown, Humanized Fab-SASA clone from the phage library) VH: EVQLVESGGGLVQPGGSLRLSCAASGFVFSRYDMAWVRQTPGKGLEWVSFISGGGSNTYYPDTVKGRFTISRDNSKNTLYLQMNSLRAEDTAVYYCISPYYYAMEYWGQGTTVTVSS VL: DIQMTQSPSSISTSVGDRVTITCKASQDVDTAVAWYQQKPGKSPKLLIYWASTRHTGVPSRFSGSGSGTDFTLTISSLQPEDFADYFCQQYSTFPWTFGGGTKVEIK")
"satisfied"
>>> class_label("AS05614 (Fab, V domains shown, Humanized Fab-SASA clone from the phage library) VH: EVQLVESGGGLVQPGGSLRLSCAASGFVFSRYDMAWVRQTPGKGLEWVSFISGGGSNTYYPDTVKGRFTISRDNSKNTLYLQMNSLRAEDTAVYYCISPYYYAMEYWGQGTTVTVSS VL: DIQMTQSPSSISTSVGDRVTITCKASQDVDTAVAWYQQKPGKSPKLLIHWASTRHTGVPSRFSGSGSGTDFTLTLSSVQPEDFATYFCQQYSTFPWTFGGGTKVEIK")
"not satisfied"
>>> class_label("PD1-BM Ab (Fab) (Fab, V domains shown, Humanized Fab with all 14 back mutations; also called PD1-BM Fab) VH: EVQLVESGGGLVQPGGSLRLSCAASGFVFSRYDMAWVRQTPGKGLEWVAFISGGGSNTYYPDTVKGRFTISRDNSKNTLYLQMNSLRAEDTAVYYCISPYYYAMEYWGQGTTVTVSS VL: DIQMTQSPSSISTSVGDRVTITCKASQDVDTAVAWYQQKPGKSPKLLIHWASTRHTGVPSRFSGSGSGTDFTLTLSSVQPEDLADYFCQQYSTFPWTFGGGTKLEIK")
"satisfied"
>>> class_label("AS05618 (Fab, V domains shown, Humanized Fab-SASA clone from the phage library) VH: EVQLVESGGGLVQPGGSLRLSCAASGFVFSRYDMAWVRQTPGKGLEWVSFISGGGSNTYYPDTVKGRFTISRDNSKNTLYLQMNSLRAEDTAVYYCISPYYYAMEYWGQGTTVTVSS VL: DIQMTQSPSSISTSVGDRVTITCKASQDVDTAVAWYQQKPGKSPKLLIHWASTRHTGVPSRFSGSGSGTDFTLTISSLQPEDFADYFCQQYSTFPWTFGGGTKLEIK")
"not satisfied"

Now look at this entry.
Query: In the record for AS05616 (Fab, V domains shown, Humanized Fab-SASA clone from the phage library) VH: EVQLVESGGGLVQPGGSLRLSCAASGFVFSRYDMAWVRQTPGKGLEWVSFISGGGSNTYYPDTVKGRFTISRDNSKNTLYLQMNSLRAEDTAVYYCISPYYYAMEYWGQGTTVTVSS VL: DIQMTQSPSSISTSVGDRVTITCKASQDVDTAVAWYQQKPGKSPKLLIHWASTRHTGVPSRFSGSGSGTDFTLTISSLQPEDFADYFCQQYSTFPWTFGGGTKVEIK , is Kd less than 0.09 nM?
Reply: not satisfied
